- System: ASPC1
- PROTOCOL_DETAILS: Antiproliferative activity against human ASPC1 cells assessed as reduction in cell viability incubated for 72 hrs by CCK8 assay
- Type: functional, cell-based
- MEASUREMENT_PARAMETERS: ASPC1, 72 h
pIC50: −log10 of the molar value.
pIC50 vs 6: at or above is Criterion met, below is Criterion not met.

                                     smiles     class_name
0  O=C(NO)c1ccccc1Nc1nc(Nc2ccc(CN3CCOCC3)cc2)ncc1Cl  Criterion met

query: Does the molecule CNC(=O)c1ccccc1Nc1nc(Nc2ccc(CN3CCC(C(=O)NO)CC3)cc2)ncc1Cl have recorded pIC50 that is 6 or more?
result: Criterion met

query: Does the molecule O=C(NO)c1ccccc1Nc1nc(Nc2ccc(OCC(=O)N3CCOCC3)cc2)ncc1Cl have recorded pIC50 that is 6 or more?
result: Criterion met

query: Does the molecule O=C(COc1ccc(Nc2ncc(Cl)c(Nc3ccccc3C(=O)NO)n2)cc1)NO have recorded pIC50 that is 6 or more?
result: Criterion not met

query: Does the molecule CN1CCN(c2ccc(Nc3ncc(Cl)c(Nc4ccccc4C(=O)NO)n3)cc2)CC1 have recorded pIC50 that is 6 or more?
result: Criterion met

----------
- Test system: A-431
- PROTOCOL_DETAILS: Cytotoxicity against human A-431 cells harboring wild type EGFR assessed as reduction in cell viability incubated for 72 hrs by CCK8 assay
- Format: cell-based
- MEASUREMENT_PARAMETERS: A-431, 72 h
Some compounds, each annotated with its measured IC50.
Hi! Could you send only the number? It should be in µM, unit omitted.

query: So what does the record say about IC50 for CN1CCN(CCOc2ccc(Nc3ncc(Cl)c(Nc4ccccc4C(=O)NO)n3)cc2)CC1 ?
result: 0.692

query: So what does the record say about IC50 for CNC(=O)c1ccccc1Nc1nc(Nc2ccc(CN3CCC(C(=O)NO)CC3)cc2)ncc1Cl ?
result: 1.16

query: So what does the record say about IC50 for CNC(=O)c1ccccc1Nc1nc(Nc2ccc(OCCCN3CCC(C(=O)NO)CC3)cc2)ncc1Cl ?
result: 0.448

query: So what does the record say about IC50 for O=C(NO)c1ccccc1Nc1nc(Nc2ccc(OCCCN3CCOCC3)cc2)ncc1Cl ?
result: 1.4

query: So what does the record say about IC50 for CNC(=O)c1ccccc1Nc1nc(Nc2ccc(N3CCC(C(=O)NO)CC3)cc2)ncc1Cl ?
result: 0.127

query: So what does the record say about IC50 for O=C(NO)c1ccccc1Nc1nc(Nc2ccc(CN3CCOCC3)cc2)ncc1Cl ?
result: 2.43

query: So what does the record say about IC50 for O=C(NO)c1ccccc1Nc1nc(Nc2ccc(OCCN3CCOCC3)cc2)ncc1Cl ?
result: 1.07

query: So what does the record say about IC50 for O=C(NO)c1ccccc1Nc1nc(Nc2ccc(N3CCOCC3)cc2)ncc1Cl ?
result: 1.58

----------
- PROTOCOL_DETAILS: Elimination half life in Sprague-Dawley rat at 25 mg/kg, iv measured for 24 hrs by LC-MS/MS analysis
- Type: ADME, organism-based
- MEASUREMENT_PARAMETERS: in vivo, read-out: beta t1/2 (converted)
OUTCOME_MEASURE: half-life (h)
Hi! Could you send only the number? It should be in h, unit omitted.

query: So what does the record say about half-life for O=C(NO)c1ccccc1Nc1nc(Nc2ccc(OCCN3CCOCC3)cc2)ncc1Cl ?
result: 9.51

----------
- Test system: NCI-H23
- PROTOCOL_DETAILS: Antiproliferative activity against human NCI-H23 cells harboring KRAS mutant assessed as reduction in cell viability incubated for 72 hrs by CCK8 assay
- Type: functional, cell-based
- MEASUREMENT_PARAMETERS: NCI-H23, 72 h
Some molecules, each annotated with its measured IC50.
Hi! Could you send only the number? It should be in nM, unit omitted.

The cases that follow already have their IC50 on record.
                                     smiles  outcome_measure  measured_value
0  O=C(NO)c1ccccc1Nc1nc(Nc2ccc(OCC(=O)N3CCOCC3)cc2)ncc1Cl             IC50             820
1  O=C(NO)c1ccccc1Nc1nc(Nc2ccc(CN3CCOCC3)cc2)ncc1Cl             IC50             554
2  CNC(=O)c1ccccc1Nc1nc(Nc2ccc(CN3CCC(C(=O)NO)CC3)cc2)ncc1Cl             IC50            8420
3  CN1CCN(CCOc2ccc(Nc3ncc(Cl)c(Nc4ccccc4C(=O)NO)n3)cc2)CC1             IC50             642
4  O=C(CN1CCOCC1)Nc1ccc(Nc2ncc(Cl)c(Nc3ccccc3C(=O)NO)n2)cc1             IC50            1740

// below: IC50 requested for another molecule
query: So what does the record say about IC50 for CNC(=O)c1ccccc1Nc1nc(Nc2ccc(N3CCC(C(=O)NO)CC3)cc2)ncc1Cl ?
result: 1540

----------
- PROTOCOL_DETAILS: MRT (0 to t) in Sprague-Dawley rat at 25 mg/kg, iv measured for 24 hrs by LC-MS/MS analysis
- Format: ADME, organism-based
- MEASUREMENT_PARAMETERS: in vivo
OUTCOME_MEASURE: MRT last at 24 h
Write the figure, then the unit, nothing else.

query: So what does the record say about MRT last at 24 h for O=C(NO)c1ccccc1Nc1nc(Nc2ccc(OCCN3CCOCC3)cc2)ncc1Cl ?
result: 8.2 h

----------
Some compounds, each annotated with its measured pIC50.
- Test system: ASPC1
- PROTOCOL_DETAILS: Antiproliferative activity against human ASPC1 cells assessed as reduction in cell viability incubated for 72 hrs by CCK8 assay
- Format: functional, cell-based
- MEASUREMENT_PARAMETERS: ASPC1, 72 h
Note: pIC50 values are expressed as the negative base-10 logarithm of concentration in M.

The cases that follow already have their pIC50 on record.
>>> df
                                     smiles  tested_target  measured_value
0  O=C(NO)c1ccccc1Nc1nc(Nc2ccc(OCCN3CCOCC3)cc2)ncc1Cl          ASPC1            6.77
1  O=C(NO)c1ccccc1Nc1nc(Nc2ccc(OCCCN3CCOCC3)cc2)ncc1Cl          ASPC1            5.91
2  CNC(=O)c1ccccc1Nc1nc(Nc2ccc(N3CCC(C(=O)NO)CC3)cc2)ncc1Cl          ASPC1            6.30

// below: pIC50 requested for another compound
query: So what does the record say about pIC50 for CN1CCN(CCOc2ccc(Nc3ncc(Cl)c(Nc4ccccc4C(=O)NO)n3)cc2)CC1 ?
result: 6.61

----------
- PROTOCOL_DETAILS: AUC (0 to infinity) in Sprague-Dawley rat at 25 mg/kg, iv by LC-MS/MS analysis
- Assay type: ADME, organism-based
- Design: route intravenous, time infinity, dose 25 mg/kg
- MEASUREMENT_PARAMETERS: in vivo
OUTCOME_MEASURE: AUC(0-inf) (ng·h/mL)
Hi! Could you send only the number? It should be in ng·h/mL, unit omitted.

query: So what does the record say about AUC(0-inf) for O=C(NO)c1ccccc1Nc1nc(Nc2ccc(OCCN3CCOCC3)cc2)ncc1Cl ?
result: 45200

----------
- PROTOCOL_DETAILS: MRT (0 to infinity) in Sprague-Dawley rat at 25 mg/kg, iv by LC-MS/MS analysis
- Assay type: ADME, organism-based
- MEASUREMENT_PARAMETERS: in vivo
OUTCOME_MEASURE: MRT inf (h)
Hi! Could you send only the number? It should be in h, unit omitted.

query: So what does the record say about MRT inf for O=C(NO)c1ccccc1Nc1nc(Nc2ccc(OCCN3CCOCC3)cc2)ncc1Cl ?
result: 13.1

----------
- TESTED_TARGET: Epidermal growth factor receptor (Homo sapiens, UniProt P00533, L858R/T790M)
- Sequence (P00533 25-1210 T790M/L858R limits assumed): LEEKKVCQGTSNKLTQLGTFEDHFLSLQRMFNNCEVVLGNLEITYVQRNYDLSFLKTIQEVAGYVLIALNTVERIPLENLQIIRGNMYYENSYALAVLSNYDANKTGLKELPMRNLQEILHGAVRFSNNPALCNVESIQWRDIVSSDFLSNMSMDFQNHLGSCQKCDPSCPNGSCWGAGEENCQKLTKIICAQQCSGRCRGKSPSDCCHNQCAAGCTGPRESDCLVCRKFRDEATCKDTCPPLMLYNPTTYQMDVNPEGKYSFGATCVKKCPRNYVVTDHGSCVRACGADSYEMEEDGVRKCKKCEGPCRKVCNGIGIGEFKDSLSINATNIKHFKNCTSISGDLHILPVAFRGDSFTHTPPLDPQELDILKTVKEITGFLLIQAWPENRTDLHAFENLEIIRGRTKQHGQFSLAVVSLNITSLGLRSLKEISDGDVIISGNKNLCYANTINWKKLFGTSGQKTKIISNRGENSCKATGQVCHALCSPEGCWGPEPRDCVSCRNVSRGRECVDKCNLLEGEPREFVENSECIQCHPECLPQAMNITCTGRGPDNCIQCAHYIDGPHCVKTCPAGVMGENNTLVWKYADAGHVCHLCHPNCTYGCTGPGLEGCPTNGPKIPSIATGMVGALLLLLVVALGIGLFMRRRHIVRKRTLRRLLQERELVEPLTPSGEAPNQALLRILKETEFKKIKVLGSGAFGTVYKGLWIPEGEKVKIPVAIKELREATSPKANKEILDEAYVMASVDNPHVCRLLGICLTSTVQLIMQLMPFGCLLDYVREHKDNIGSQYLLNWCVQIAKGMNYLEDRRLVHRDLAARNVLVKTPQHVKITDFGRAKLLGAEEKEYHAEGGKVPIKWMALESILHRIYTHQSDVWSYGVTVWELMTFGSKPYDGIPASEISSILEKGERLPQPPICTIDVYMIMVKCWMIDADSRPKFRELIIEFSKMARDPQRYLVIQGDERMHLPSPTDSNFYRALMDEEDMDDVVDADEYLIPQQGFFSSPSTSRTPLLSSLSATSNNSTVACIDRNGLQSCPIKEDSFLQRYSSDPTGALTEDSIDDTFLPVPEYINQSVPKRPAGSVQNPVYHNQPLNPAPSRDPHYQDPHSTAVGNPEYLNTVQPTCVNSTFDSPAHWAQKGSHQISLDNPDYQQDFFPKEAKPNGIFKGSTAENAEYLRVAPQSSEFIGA
- PROTOCOL_DETAILS: Inhibition of EGFR L858R/T790M double mutant (unknown origin) measured after 60 mins by ADP-Glo kinase based luminescence assay
OUTCOME_MEASURE: IC50
Write the figure, then the unit, nothing else.

The cases that follow already have their IC50 on record.
In [3]: df
Out[3]:
                                     smiles  measured_value
0  O=C(COc1ccc(Nc2ncc(Cl)c(Nc3ccccc3C(=O)NO)n2)cc1)NO         65.4 nM
1  O=C(NO)c1ccccc1Nc1nc(Nc2ccc(N3CCOCC3)cc2)ncc1Cl          116 nM

// below: IC50 requested for another compound
query: Form entry - test system: Epidermal growth factor receptor (Homo sapiens, UniProt P00533, L858R/T790M); read-out: IC50; compound: CCOC(=O)c1ccccc1Nc1nc(Nc2ccc(OCC(=O)N3CCOCC3)cc2)ncc1Cl
result: 0.245 nM
